This section presents compounds with their documented pIC50 values.
# tgt: LATS2 (Homo sapiens)
# Sequence (Q9NRM7 whole entry): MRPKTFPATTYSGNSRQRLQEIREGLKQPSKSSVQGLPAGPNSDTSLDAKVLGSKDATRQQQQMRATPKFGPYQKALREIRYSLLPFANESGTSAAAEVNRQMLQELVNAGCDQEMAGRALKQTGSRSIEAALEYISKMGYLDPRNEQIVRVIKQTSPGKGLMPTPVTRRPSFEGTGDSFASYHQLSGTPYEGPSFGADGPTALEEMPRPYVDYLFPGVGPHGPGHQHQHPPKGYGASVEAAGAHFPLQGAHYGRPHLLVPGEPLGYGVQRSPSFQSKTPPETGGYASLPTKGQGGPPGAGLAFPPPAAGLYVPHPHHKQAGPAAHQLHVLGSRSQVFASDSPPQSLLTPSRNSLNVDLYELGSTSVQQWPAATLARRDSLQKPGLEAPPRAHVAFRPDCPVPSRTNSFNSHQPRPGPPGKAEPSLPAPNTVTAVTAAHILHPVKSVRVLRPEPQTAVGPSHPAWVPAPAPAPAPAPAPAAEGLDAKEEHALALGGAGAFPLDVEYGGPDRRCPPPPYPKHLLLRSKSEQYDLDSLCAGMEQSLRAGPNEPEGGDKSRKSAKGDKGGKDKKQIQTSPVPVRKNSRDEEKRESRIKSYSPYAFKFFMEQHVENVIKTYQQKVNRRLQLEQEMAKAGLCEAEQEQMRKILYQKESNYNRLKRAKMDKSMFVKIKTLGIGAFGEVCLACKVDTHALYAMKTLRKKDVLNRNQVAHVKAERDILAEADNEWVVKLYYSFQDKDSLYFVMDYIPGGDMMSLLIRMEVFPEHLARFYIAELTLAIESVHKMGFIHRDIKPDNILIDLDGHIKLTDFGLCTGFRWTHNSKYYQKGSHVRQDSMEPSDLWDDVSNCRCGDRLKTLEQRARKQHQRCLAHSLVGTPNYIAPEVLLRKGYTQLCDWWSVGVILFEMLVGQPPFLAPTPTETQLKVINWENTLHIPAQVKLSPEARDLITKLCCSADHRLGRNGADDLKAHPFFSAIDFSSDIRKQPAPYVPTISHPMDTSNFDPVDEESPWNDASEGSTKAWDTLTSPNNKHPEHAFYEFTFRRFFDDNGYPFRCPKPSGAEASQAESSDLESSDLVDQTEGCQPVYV
# protocol_notes: RBC HotSpot kinase assay (33P-ATP, P81 filter-binding), LATS2
# Format: biochemical
# experimental_context: Table 28, biochemical kinase assay; read-out: LATS2 IC50
Please note pIC50 is a logarithmic value: minus log10 of concentration in mol/L. Answer with that number alone.

INSERT INTO results (compound, tgt, reported) VALUES
  ('FC(F)(F)c1cc(C2CCNCC2)ccc1-c1ccnc2[nH]ccc12 [Compound 182]', 'LATS2 (Homo sapiens)', 5.75);

Req: Field request: pIC50 | item: CC(=O)N1C[C@@H](C)[C@](O)(c2c(F)cc(-c3ccnc4[nH]cc(F)c34)cc2F)[C@@H](C)C1 [Compound 94]
Resp: 7.53

Req: Cc1cc(-c2ccnc3[nH]cc(F)c23)cc(F)c1[C@@]1(O)[C@H](C)CN(C(=O)[C@@H]2CCCN2)C[C@@H]1C [Compound 63] , same question.
Resp: 8.47

Req: Input C[C@@H]1CN(C)C[C@H](C)[C@@]1(O)c1ccc(-c2ccnc3[nH]cc(F)c23)nc1 [Compound 41]
Resp: 6.57

Req: Moving on to the next compound: CN1CC(O)(c2ccc(-c3ccnc4[nH]cc(F)c34)cc2Cl)C1 [Compound 137]
Resp: 6.46

Req: Okay, and NCc1ccc(-c2c(F)cnc3[nH]ccc23)cc1 [Compound 273] ?
Resp: 6.83

Req: And the next one, CC1CC(O)(c2ccc(-c3ccnc4[nH]cc(F)c34)cc2Cl)CCN1 (centres unmarked) [Compound 98] ?
Resp: 7.43

Req: Input NCc1ccc(-c2c(Cl)cnc3[nH]ccc23)cc1 [Compound 272]
Resp: 6.57
